Target sequence: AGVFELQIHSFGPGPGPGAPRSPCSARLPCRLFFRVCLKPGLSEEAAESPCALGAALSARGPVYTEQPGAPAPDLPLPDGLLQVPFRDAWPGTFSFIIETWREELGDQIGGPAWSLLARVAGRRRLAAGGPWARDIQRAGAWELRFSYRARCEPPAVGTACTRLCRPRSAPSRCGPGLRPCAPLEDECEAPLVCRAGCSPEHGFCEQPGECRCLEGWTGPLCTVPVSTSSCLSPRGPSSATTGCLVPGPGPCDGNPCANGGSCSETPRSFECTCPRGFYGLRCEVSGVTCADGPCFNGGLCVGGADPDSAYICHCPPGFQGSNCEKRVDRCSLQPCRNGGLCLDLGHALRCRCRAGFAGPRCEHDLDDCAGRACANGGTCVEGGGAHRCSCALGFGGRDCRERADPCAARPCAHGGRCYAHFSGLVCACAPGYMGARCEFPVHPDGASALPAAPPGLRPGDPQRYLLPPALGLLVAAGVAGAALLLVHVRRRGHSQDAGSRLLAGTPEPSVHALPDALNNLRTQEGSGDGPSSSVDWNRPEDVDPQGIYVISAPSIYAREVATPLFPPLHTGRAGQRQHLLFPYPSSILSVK
Bridge positions count the residues as written; N and C are the ends. Square brackets hold non-standard residues; d marks the D form. Peptide text beside a SMILES is read from it. * marks the point of attachment. DOTA = O=C(O)CN1CCN(CC(=O)O)CCN(CC(=O)*)CCN(CC(=O)O)CC1; 1Nal = N[C@@H](Cc1cccc2ccccc12)C(=O)O; 2Nal = N[C@@H](Cc1ccc2ccccc2c1)C(=O)O; tBuAla = CC(C)(C)C[C@H](N)C(=O)O; αMeP = C[C@@]1(C(=O)O)CCCN1; Ahx = NCCCCCC(=O)O
measure: Kd (nM)
Give just the number in nM; leave the unit off.

Ask: Name the recorded Kd for CC(=O)N[C@@H](CO)C(=O)N[C@@](C)(CC(=O)O)C(=O)N[C@H]1CCCC[C@@H](C(=O)N2CCC[C@@]2(C)C(=O)N[C@@H](Cc2ccccc2)C(=O)N[C@@H](CC(=O)O)C(N)=O)NC(=O)[C@H](CC(N)=O)NC(=O)[C@H](Cc2ccc3ccccc3c2)NC(=O)[C@H](Cc2ccc(CNC(=O)CN3CCN(CC(=O)O)CCN(CC(=O)O)CCN(CC(=O)O)CC3)cc2)NC(=O)[C@H](CC(C)(C)C)NC(=O)[C@H](Cc2cccc3ccccc23)NC1=O .
Reply: 0.419

Continuing:
Ask: Name the recorded Kd for CC(C)(C)C[C@@H]1NC(=O)[C@H](Cc2cccc3ccccc23)NC(=O)[C@@H](NC(=O)[C@H](CC(=O)O)NC(=O)[C@H](CO)NC(=O)CCCCCNC(=O)CN2CCN(CC(=O)O)CCN(CC(=O)O)CCN(CC(=O)O)CC2)CSSC[C@@H](C(=O)N2CCC[C@@]2(C)C(=O)N[C@@H](Cc2ccccc2)C(=O)N[C@@H](CC(=O)O)C(=O)O)NC(=O)[C@H](CC(N)=O)NC(=O)[C@H](Cc2ccc3ccccc3c2)NC(=O)[C@H](CCC(N)=O)NC1=O [compound 156] ({DOTA-Ahx}-SDC[1Nal][tBuAla]Q[2Nal]NC[αMeP]FD-OH; disulfide 3-9) .
Reply: 0.11
